# target of assay: TRM6-TRM61 holoenzyme (Saccharomyces cerevisiae, UniProt P46959, F124A)
# Construct: full-length TRM6 (478 residues) and TRM61 co-expressed from pETDuet-TRM6-TRM61 in bacteria; Ni-NTA and gel filtration; with tRNA (adenine(58)-N(1))-methyltransferase non-catalytic subunit TRM6
# Sequence (P46959 whole entry F124A): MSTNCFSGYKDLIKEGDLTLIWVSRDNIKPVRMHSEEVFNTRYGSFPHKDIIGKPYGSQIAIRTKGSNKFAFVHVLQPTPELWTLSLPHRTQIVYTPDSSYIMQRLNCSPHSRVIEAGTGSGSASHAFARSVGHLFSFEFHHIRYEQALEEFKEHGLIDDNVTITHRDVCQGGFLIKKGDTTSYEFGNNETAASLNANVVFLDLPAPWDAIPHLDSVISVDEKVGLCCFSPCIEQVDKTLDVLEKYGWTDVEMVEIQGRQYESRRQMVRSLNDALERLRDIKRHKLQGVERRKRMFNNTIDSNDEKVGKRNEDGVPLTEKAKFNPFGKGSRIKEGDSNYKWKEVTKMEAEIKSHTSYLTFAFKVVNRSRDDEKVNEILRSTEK
# Sequence (P41814 whole entry partner): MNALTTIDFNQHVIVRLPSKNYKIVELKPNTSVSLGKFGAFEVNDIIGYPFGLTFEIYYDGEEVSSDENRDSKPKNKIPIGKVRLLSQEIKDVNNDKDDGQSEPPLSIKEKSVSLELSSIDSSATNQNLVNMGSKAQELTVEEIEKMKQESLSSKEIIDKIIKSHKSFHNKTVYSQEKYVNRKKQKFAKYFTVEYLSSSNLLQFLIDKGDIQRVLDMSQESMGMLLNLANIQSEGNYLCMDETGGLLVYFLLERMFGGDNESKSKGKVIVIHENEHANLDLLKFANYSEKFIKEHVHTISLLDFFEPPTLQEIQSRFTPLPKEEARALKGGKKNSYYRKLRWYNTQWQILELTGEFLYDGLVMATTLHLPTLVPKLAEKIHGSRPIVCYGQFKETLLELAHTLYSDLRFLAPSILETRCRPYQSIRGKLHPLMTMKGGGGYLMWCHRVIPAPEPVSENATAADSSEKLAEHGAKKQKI
# protocol text: isothermal titration calorimetry, single-site fit
measured metric: Kd (µM)

INSERT INTO assay_data (compound, u, observed_value) VALUES
  ('C[S+](CC[C@H](N)C(=O)O)C[C@H]1O[C@@H](n2cnc3c(N)ncnc32)[C@H](O)[C@@H]1O (stereo partly shown)', 'µM', 317);

* * *

# target of assay: TRM6-TRM61 holoenzyme (Saccharomyces cerevisiae, UniProt P46959, F140A)
# Construct: full-length TRM6 (478 residues) and TRM61 co-expressed from pETDuet-TRM6-TRM61 in bacteria; Ni-NTA and gel filtration; with tRNA (adenine(58)-N(1))-methyltransferase non-catalytic subunit TRM6
# Sequence (P46959 whole entry F140A, one chain of several): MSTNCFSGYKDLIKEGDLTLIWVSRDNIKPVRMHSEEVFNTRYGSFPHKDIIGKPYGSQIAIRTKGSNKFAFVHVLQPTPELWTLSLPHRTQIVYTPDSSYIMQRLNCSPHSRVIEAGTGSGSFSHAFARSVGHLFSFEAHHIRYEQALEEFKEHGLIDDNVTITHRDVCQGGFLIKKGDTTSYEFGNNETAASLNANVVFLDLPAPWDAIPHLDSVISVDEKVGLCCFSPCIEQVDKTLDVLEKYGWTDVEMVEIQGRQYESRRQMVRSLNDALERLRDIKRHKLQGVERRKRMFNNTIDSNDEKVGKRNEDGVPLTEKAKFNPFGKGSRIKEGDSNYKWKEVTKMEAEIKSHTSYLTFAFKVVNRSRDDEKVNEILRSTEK
# protocol text: isothermal titration calorimetry, single-site fit
measured metric: Kd

INSERT INTO results (compound, observed_value) VALUES
  ('C[S+](CC[C@H](N)C(=O)O)C[C@H]1O[C@@H](n2cnc3c(N)ncnc32)[C@H](O)[C@@H]1O (stereo partly shown) [SAM]', '787 µM');

* * *

# target of assay: TRM6-TRM61 holoenzyme (Saccharomyces cerevisiae)
# Construct: full-length TRM6 (478 residues) and TRM61 co-expressed from pETDuet-TRM6-TRM61 in bacteria; Ni-NTA and gel filtration; with tRNA (adenine(58)-N(1))-methyltransferase non-catalytic subunit TRM6
# protocol text: isothermal titration calorimetry, single-site fit
pKd: −log10 of the molar value.
measured metric: pKd

INSERT INTO results (molecule, observed_value) VALUES
  ('C[S+](CC[C@H](N)C(=O)O)C[C@H]1O[C@@H](n2cnc3c(N)ncnc32)[C@H](O)[C@@H]1O (stereo partly shown)', 4.35);

* * *

# target of assay: TRM6-TRM61 holoenzyme (Saccharomyces cerevisiae, UniProt P46959, V169A)
# Construct: full-length TRM6 (478 residues) and TRM61 co-expressed from pETDuet-TRM6-TRM61 in bacteria; Ni-NTA and gel filtration; with tRNA (adenine(58)-N(1))-methyltransferase non-catalytic subunit TRM6
# protocol text: isothermal titration calorimetry, single-site fit
measured metric: Kd

INSERT INTO assay_data (molecule, target_of_assay, measured_metric, observed_value) VALUES
  ('C[S+](CC[C@H](N)C(=O)O)C[C@H]1O[C@@H](n2cnc3c(N)ncnc32)[C@H](O)[C@@H]1O (stereo partly shown)', 'TRM6-TRM61 holoenzyme (Saccharomyces cerevisiae, UniProt P46959, V169A)', 'Kd', '409 µM');
